experimental.system: human activated C1r complement component (Homo sapiens (Human))
Sequence (P00736 464-705): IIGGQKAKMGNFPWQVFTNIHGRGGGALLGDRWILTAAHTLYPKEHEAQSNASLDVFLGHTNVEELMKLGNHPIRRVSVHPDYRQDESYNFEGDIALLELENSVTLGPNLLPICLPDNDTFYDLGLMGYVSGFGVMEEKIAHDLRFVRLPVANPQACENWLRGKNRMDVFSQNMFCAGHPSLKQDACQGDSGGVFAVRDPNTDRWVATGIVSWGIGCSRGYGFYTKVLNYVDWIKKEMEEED
Sequence (P00736 18-463 partner): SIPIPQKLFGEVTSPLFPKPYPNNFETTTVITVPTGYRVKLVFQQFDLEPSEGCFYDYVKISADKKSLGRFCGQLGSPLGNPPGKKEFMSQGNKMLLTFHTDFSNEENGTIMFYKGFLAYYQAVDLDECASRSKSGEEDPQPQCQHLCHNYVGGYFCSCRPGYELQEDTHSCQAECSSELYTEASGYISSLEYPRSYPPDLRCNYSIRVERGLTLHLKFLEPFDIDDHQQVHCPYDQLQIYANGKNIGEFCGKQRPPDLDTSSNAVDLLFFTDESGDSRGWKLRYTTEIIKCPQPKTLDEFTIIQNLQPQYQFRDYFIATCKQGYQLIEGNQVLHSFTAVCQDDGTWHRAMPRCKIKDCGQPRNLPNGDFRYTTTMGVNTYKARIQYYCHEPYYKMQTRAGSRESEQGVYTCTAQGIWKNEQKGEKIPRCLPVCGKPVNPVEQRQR
assay.name: Inhibition of human C1r
run.parameters: S2314 substrate; read-out: h C1r Ki
pKi: −log10 of the molar value.
experimental.endpoint: pKi

Examples with their reported pKi follow.
Briefly, pKi measured for `CC(C)C(=O)N1CCC(CC[C@@H](NS(=O)(=O)Cc2ccccc2)C(=O)N[C@@H](CCC2CCNCC2)C(=O)NCc2ccc(C(=N)N)cc2)CC1` : < 4.52

Briefly, pKi measured for N=C(N)c1ccc(CNC(=O)[C@H](CCC2CCNCC2)NC(=O)[C@@H](CCCc2cc[n+]([O-])cc2)NS(=O)(=O)Cc2ccccc2)cc1 [drawing 117] : < 4.52

Briefly, pKi measured for `CCC(=O)N1CCC(CC[C@@H](NS(=O)(=O)Cc2ccccc2)C(=O)N[C@@H](CCC2CCNCC2)C(=O)NCc2ccc(C(=N)N)cc2)CC1` : < 4.46

Briefly, pKi measured for `COCC(=O)N1CCC(CC[C@@H](NS(=O)(=O)Cc2ccccc2)C(=O)N[C@@H](CCC2CCNCC2)C(=O)NCc2ccc(C(=N)N)cc2)CC1` : < 4.30

Briefly, pKi measured for `CC(=O)N1CCC(CCC[C@@H](NS(=O)(=O)Cc2ccccc2)C(=O)N[C@@H](CCC2CCNCC2)C(=O)NCc2ccc(C(=N)N)cc2)CC1` : < 4.00

Below: the item to evaluate.
Briefly, pKi measured for N=C(N)c1ccc(CNC(=O)[C@H](CCC2CCNCC2)NC(=O)[C@@H](CCCc2cc[n+]([O-])cc2)NS(=O)(=O)Cc2ccccc2)cc1 [drawing 123] : < 4.52

----------
experimental.system: UniProt P00747
Sequence (P00747 581-810): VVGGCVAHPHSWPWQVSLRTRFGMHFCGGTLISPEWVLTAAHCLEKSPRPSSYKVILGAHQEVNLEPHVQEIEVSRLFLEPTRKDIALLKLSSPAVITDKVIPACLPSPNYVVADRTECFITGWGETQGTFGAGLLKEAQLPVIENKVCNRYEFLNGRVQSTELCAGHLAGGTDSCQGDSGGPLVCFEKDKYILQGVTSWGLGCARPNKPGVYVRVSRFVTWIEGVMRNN
Sequence (P00747 97-580 partner): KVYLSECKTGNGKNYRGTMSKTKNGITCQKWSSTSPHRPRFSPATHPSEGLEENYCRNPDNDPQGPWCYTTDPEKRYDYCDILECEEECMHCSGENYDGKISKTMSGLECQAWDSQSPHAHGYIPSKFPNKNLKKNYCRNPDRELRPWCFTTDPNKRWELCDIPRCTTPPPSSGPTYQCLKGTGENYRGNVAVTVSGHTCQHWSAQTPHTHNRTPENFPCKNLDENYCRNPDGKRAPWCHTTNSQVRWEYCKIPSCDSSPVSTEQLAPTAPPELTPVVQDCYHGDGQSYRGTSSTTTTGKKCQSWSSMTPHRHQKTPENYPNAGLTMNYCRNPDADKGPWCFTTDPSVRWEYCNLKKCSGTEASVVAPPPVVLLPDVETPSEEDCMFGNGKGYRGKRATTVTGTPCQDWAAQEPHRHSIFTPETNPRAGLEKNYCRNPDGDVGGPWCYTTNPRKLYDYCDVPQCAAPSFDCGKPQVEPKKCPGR
assay.name: Determination of inhibition constants for human plasmin (chromogenic substrate)
Type: biochemical
run.parameters: 25° C., Chromozym PL substrate; read-out: h plasmin Ki
Experimental: Determination of the Inhibition Constants for Human Plasmin (h Plasmin) and Human Plasma Kallikrein (h PK) The inhibitory effect for the individual enzymes was determined in analogy to a previously disclosed method (Stürzebecher et al., J. Med. Chem., 40, 3091-3099 (1997)). […] For zero order kinetics, the reaction was stopped after 20 min by adding 15 μl of acetic acid (80% v/v), and the absorption at 405 nm was determined using a Microplate Reader (Multiscan Ascent™, from Thermo). […]
experimental.endpoint: Ki (nM)

1 = N=C(N)c1ccc(CNC(=O)[C@H](CCC2CCNCC2)NC(=O)[C@@H](CCCc2ccncc2)NS(=O)(=O)Cc2ccccc2)cc1
2 = N=C(N)c1ccc(CNC(=O)[C@H](CCC2CCNCC2)NC(=O)[C@@H](CCCC2CCNCC2)NS(=O)(=O)Cc2ccccc2)cc1
3 = COC(=O)N1CCC(CCC[C@@H](NS(=O)(=O)Cc2ccccc2)C(=O)N[C@@H](CCC2CCNCC2)C(=O)NCc2ccc(C(=N)N)cc2)CC1
# sort list by recorded Ki, greatest to least # format: label list in the order the request specifies
2, 3, 1

----------
What follows is a record of Ki for UniProtKB P03951.
Sequence (P03951 388-625): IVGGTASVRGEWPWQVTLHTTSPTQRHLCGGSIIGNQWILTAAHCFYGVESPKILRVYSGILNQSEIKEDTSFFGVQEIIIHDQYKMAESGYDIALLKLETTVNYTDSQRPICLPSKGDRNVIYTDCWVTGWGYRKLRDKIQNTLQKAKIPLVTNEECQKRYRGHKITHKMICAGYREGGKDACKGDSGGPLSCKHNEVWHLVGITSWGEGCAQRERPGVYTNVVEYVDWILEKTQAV
Sequence (P03951 19-387 partner): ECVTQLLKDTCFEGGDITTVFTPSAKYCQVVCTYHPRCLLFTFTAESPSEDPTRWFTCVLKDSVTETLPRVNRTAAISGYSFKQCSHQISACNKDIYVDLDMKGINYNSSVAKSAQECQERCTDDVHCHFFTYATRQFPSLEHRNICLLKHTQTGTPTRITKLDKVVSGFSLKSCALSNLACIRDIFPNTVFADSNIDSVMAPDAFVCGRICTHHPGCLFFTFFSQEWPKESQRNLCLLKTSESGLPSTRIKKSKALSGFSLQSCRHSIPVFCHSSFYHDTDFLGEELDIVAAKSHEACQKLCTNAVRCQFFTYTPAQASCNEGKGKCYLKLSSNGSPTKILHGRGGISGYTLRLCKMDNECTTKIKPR
experimental.endpoint: Ki (µM)

Examples with their reported Ki follow.
Record `CCC(=O)N1CCC(CC[C@@H](NS(=O)(=O)Cc2ccccc2)C(=O)N[C@@H](CCC2CCNCC2)C(=O)NCc2ccc(C(=N)N)cc2)CC1` has UniProtKB P03951 Ki equal to 0.72

Record `CCCC(=O)N1CCC(CC[C@@H](NS(=O)(=O)Cc2ccccc2)C(=O)N[C@@H](CCC2CCNCC2)C(=O)NCc2ccc(C(=N)N)cc2)CC1` has UniProtKB P03951 Ki equal to 0.87

Record `N=C(N)c1ccc(CNC(=O)[C@H](CCC2CCNCC2)NC(=O)[C@@H](CCc2cc[n+]([O-])cc2)NS(=O)(=O)Cc2ccccc2)cc1` has UniProtKB P03951 Ki equal to 2.5

A = COC(=O)c1cccc(CS(=O)(=O)N[C@H](CCCc2ccccc2)C(=O)N[C@@H](CCC2CCNCC2)C(=O)NCc2ccc(C(=N)N)cc2)c1
B = COCC(=O)N1CCC(CC[C@@H](NS(=O)(=O)Cc2ccccc2)C(=O)N[C@@H](CCC2CCNCC2)C(=O)NCc2ccc(C(=N)N)cc2)CC1
Please tell me which of the two, A or B , has the higher reported Ki value. Let me know the label of the one you choose.
B
